# Test system: THX cells
# MEASUREMENT PROTOCOL: Growth inhibition with or without nucleoside transport inhibitors
# Format: cell-based, human
# TEST SETTINGS: Homo sapiens, +Dipyridamole 4 μg/ml
PARAMETER MEASURED: IC50 (nM)
Give your result in nM as a bare value.

Please give the measured IC50 for this compound: Nc1ccn([C@@H]2O[C@H](CO)[C@@H](O)C2(F)F)c(=O)n1
310

----------
# System: MOLT4/C8 cells
# MEASUREMENT PROTOCOL: Growth inhibition with or without nucleoside transport inhibitors
# Format: cell-based
# TEST SETTINGS: Homo sapiens, Molt4/C8, MOLT4/C8, +Dipyridamole 4 μg/ml
PARAMETER MEASURED: pIC50
pIC50 here is simply -log10 of the concentration when that concentration is written in mol/L.

Please give the measured pIC50 for this compound: Nc1ccn([C@@H]2O[C@H](CO)[C@@H](O)C2(F)F)c(=O)n1
5.12
